assayed system: Serotonin 5-HT2A receptor (Homo sapiens)
Construct: expressed in transfected cells; host or cells: CHO-K1
assay overview: IPOne HTRF assay, agonist and antagonist mode
Format: cell-based
test parameters: IC50 value for the Serotonin 5-HT2A receptor, antagonist mode, bound stated
pIC50: −log10 of the molar value.
property name: pIC50

Qu. Identify measured pIC50 corresponding to CCN(CC(F)(F)F)C(=O)N[C@H]1C[C@@H]2c3cccc4[nH]c(C(F)(F)F)c(c34)C[C@H]2N(C)C1 [Compound A16H]
Ans. > 6.00

###

assayed system: Dopamine D2L receptor (Homo sapiens)
Sequence (P14416 whole entry): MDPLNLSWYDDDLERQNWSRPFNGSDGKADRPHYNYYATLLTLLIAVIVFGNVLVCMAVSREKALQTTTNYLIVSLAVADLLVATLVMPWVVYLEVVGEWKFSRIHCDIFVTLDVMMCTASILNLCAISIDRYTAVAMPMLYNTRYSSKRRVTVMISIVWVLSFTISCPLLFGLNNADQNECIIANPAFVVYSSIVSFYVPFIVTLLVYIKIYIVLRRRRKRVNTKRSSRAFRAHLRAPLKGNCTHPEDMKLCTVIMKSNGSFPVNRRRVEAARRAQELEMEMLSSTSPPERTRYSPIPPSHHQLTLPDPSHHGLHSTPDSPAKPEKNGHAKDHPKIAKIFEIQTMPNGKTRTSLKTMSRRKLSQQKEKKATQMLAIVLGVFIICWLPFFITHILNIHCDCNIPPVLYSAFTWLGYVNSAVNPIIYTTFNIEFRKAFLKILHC
assay overview: GTPγS Scintillation Proximity Assay, agonist and antagonist mode
Format: biochemical
test parameters: Agonist Activity (EC50), D2L, membrane extracts
Assignment: determine reported pEC50 for the given compounds.
Numbers only, as −log10 of the molar value.

compound	pEC50
CCN(CC)C(=O)N[C@H]1C[C@@H]2c3cccc4[nH]c(C(F)(F)F)c(c34)C[C@H]2N(C)C1	8.34

# return pEC50 for each item in the list
1. CCN(CC)C(=O)N[C@H]1C[C@@H]2c3cccc4[nH]c(Br)c(c34)C[C@H]2N(C)C1
2. CC[C@@H](CO)NC(=O)[C@@H]1C[C@@H]2c3cccc4c3c(c(C3CC3)n4C)C[C@H]2N(C)C1 [Compound D13H]
3. CCN(CC(F)(F)F)C(=O)N[C@H]1C[C@@H]2c3cccc4[nH]c(C5CC5)c(c34)C[C@H]2N(C)C1 [Compound A17H]

Ans.
8.96
6.77
8.96

###

assayed system: Serotonin 5-HT1A receptor (Homo sapiens, UniProt P08908)
Sequence (P08908 1-422): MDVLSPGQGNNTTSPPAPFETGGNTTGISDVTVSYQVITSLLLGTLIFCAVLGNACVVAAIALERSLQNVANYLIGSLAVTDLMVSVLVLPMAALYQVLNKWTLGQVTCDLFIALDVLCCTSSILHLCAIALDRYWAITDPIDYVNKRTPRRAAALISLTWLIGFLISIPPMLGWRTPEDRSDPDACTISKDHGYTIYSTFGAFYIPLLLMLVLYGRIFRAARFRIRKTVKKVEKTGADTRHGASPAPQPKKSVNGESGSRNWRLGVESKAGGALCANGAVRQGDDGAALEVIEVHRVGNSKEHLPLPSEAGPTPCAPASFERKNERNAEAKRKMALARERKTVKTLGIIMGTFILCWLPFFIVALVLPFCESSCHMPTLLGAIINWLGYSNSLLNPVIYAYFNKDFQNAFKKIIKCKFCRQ
assay overview: GTPγS Scintillation Proximity Assay, agonist and antagonist mode
Assay type: biochemical
test parameters: membrane extracts; read-out: Agonist Activity (EC50), 5-HT1A
property name: pEC50
Answers are plain numbers, as −log10 of the molar value.

Qu. # return recorded pEC50 for entry CCN(CC)C(=O)N[C@H]1C[C@@H]2c3cccc4[nH]c(Br)c(c34)C[C@H]2N(C)C1 [Compound A8H]
Ans. 7.51

###

assayed system: Serotonin 5-HT1B receptor (Homo sapiens)
Sequence (P28222 whole entry): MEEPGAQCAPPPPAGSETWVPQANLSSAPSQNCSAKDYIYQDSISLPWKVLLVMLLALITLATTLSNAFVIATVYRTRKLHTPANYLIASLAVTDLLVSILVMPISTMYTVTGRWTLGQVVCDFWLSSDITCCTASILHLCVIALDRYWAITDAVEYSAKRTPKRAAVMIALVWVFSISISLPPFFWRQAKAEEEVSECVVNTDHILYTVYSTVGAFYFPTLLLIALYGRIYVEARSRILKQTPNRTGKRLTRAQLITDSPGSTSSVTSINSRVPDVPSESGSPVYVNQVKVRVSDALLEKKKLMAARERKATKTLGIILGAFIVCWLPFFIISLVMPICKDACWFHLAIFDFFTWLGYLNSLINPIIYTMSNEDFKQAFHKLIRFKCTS
assay overview: GTPγS Scintillation Proximity Assay, agonist and antagonist mode
Assay type: biochemical
test parameters: Agonist Activity (EC50), 5-HT1B, membrane extracts
Description: Antagonist and agonist activities were determined using a GTPγS Scintillation Proximity Assay. […] The plates were covered with a top seal, mixed on an orbital shaker for 2 min, and then incubated for 1 hour at room temperature. Then the plates were centrifuged for 10 min at 2000 rpm, incubated at room temperature 1 hour and counted for 1 min/well with a PerkinElmer TopCount reader. […]
property name: pEC50
One number for each entry, as −log10 of the molar value.

Qu. Quick one: give measured pEC50 for CC[C@@H](CO)NC(=O)[C@@H]1C[C@@H]2c3cccc4c3c(c(C3CC3)n4C)C[C@H]2N(C)C1 [Compound D13H]
Ans. 6.37

###

Provide the recorded IC50 for the entries that follow.
assayed system: Serotonin 5-HT1A receptor (Homo sapiens, UniProt P08908)
assay overview: GTPγS Scintillation Proximity Assay, agonist and antagonist mode
Type: biochemical
test parameters: antagonist mode, bound stated; read-out: IC50 value for the Serotonin 5-HT1A receptor

compound	observed value
CCN(CC(F)(F)F)C(=O)N[C@H]1C[C@@H]2c3cccc4[nH]c(C5CC5)c(c34)C[C@H]2N(C)C1 [Compound A17H]	< 1000 nM

Read the next record carefully.
Qu. Write IC50 of CCN(CC)C(=O)N[C@H]1C[C@@H]2c3cccc4[nH]c(Br)c(c34)C[C@H]2N(C)C1 [Compound A8H] ; system used: Serotonin 5-HT1A receptor (Homo sapiens, UniProt P08908)
Ans. < 1000 nM

###

assayed system: Serotonin 5-HT1D receptor (Homo sapiens)
Sequence (P28221 whole entry): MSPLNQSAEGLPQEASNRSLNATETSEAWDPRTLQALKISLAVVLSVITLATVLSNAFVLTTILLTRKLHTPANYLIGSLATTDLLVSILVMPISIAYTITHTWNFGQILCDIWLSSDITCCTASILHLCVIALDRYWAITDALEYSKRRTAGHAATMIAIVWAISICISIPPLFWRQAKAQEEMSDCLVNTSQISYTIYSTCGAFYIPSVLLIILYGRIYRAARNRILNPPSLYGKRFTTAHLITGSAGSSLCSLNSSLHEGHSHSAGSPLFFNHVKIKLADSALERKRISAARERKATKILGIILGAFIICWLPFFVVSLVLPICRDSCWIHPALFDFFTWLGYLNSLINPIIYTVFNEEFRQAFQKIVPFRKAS
assay overview: GTPγS Scintillation Proximity Assay, agonist and antagonist mode
Format: biochemical
test parameters: Antagonist Activity (IC50), 5-HT1D, membrane extracts, vs reference agonist at EC80
Experimental: Antagonist and agonist activities were determined using a GTPγS Scintillation Proximity Assay. […] The plates were covered with a top seal, mixed on an orbital shaker for 2 min, and then incubated for 1 hour at room temperature. Then the plates were centrifuged for 10 min at 2000 rpm, incubated at room temperature 1 hour and counted for 1 min/well with a PerkinElmer TopCount reader. […]
property name: pIC50
Give bare numbers, as −log10 of the molar value.

compound	observed value
CCN(CC)C(=O)N[C@H]1C[C@@H]2c3cccc4[nH]c(Br)c(c34)C[C@H]2N(C)C1	8.10
CCN(CC)C(=O)N[C@H]1C[C@@H]2c3cccc4[nH]c(C(F)(F)F)c(c34)C[C@H]2N(C)C1	8.00

Qu. Give me measured pIC50, please, for this compound: CCN(CC(F)(F)F)C(=O)N[C@H]1C[C@@H]2c3cccc4[nH]c(C5CC5)c(c34)C[C@H]2N(C)C1 [Compound A17H]
Ans. 7.30

###

assayed system: Serotonin 5-HT1F receptor (Homo sapiens, UniProt P30939)
Sequence (P30939 whole entry): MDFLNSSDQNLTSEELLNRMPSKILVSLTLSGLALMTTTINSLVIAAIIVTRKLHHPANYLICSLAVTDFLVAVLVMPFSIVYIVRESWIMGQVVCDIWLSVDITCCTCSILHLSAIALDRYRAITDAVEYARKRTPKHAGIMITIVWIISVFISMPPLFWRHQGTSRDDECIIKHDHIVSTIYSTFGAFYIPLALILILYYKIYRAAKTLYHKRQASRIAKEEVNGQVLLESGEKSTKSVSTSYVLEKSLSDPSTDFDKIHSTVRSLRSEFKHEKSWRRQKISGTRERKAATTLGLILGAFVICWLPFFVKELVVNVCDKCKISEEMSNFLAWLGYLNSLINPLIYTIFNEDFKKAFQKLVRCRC
assay overview: GTPγS Scintillation Proximity Assay, agonist and antagonist mode
Assay type: biochemical
test parameters: membrane extracts; read-out: Agonist Activity (EC50), 5-HT1F
property name: EC50 (nM)
One number for each entry, in nM.

Qu. Enter recorded EC50 with Serotonin 5-HT1F receptor (Homo sapiens, UniProt P30939) for CC[C@@H](CO)NC(=O)[C@@H]1C[C@@H]2c3cccc4c3c(c(C3CC3)n4C)C[C@H]2N(C)C1 [Compound D13H] here.
Ans. 260

###

So I've got a bunch of compounds here, and I need their pIC50 values.
assayed system: Serotonin 5-HT2B receptor (Homo sapiens, UniProt P41595)
Construct: expressed in transfected cells; host or cells: CHO-K1
Sequence (P41595 whole entry): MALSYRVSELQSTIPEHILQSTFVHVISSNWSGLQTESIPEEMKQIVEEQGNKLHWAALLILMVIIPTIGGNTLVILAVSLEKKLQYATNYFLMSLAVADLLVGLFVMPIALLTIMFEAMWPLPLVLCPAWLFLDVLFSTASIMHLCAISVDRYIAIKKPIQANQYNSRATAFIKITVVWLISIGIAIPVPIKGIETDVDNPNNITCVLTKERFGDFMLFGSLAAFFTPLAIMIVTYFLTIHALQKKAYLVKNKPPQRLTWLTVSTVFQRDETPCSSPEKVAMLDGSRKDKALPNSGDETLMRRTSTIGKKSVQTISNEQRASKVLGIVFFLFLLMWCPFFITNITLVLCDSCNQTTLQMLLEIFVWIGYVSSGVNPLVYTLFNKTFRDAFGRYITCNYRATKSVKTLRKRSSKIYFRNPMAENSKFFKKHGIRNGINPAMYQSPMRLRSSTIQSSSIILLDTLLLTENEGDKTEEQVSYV
assay overview: IPOne HTRF assay, agonist and antagonist mode
Assay type: cell-based
test parameters: antagonist mode, bound stated; read-out: IC50 value for the Serotonin 5-HT2B receptor
pIC50: −log10 of the molar value.

Consider the reported pIC50 for these compounds:
compound	pIC50
CC[C@@H](CO)NC(=O)[C@@H]1C[C@@H]2c3cccc4c3c(c(C3CC3)n4C)C[C@H]2N(C)C1 [Compound D13H]	> 6.00
CCN(CC(F)(F)F)C(=O)N[C@H]1C[C@@H]2c3cccc4[nH]c(C5CC5)c(c34)C[C@H]2N(C)C1 [Compound A17H]	> 6.00
CC[C@@H](CO)NC(=O)[C@@H]1C=C2c3cccc4c3c(c(C3CC3)n4C)C[C@H]2N(C)C1	> 6.00

Qu. Read off the recorded pIC50 for `CCN(CC)C(=O)N[C@H]1C[C@@H]2c3cccc4[nH]c(C(F)(F)F)c(c34)C[C@H]2N(C)C1`
Ans. > 6.00

###

assayed system: Serotonin 5-HT2A receptor (Homo sapiens, UniProt P28223)
Construct: expressed in transfected cells; host or cells: CHO-K1
Sequence (P28223 whole entry): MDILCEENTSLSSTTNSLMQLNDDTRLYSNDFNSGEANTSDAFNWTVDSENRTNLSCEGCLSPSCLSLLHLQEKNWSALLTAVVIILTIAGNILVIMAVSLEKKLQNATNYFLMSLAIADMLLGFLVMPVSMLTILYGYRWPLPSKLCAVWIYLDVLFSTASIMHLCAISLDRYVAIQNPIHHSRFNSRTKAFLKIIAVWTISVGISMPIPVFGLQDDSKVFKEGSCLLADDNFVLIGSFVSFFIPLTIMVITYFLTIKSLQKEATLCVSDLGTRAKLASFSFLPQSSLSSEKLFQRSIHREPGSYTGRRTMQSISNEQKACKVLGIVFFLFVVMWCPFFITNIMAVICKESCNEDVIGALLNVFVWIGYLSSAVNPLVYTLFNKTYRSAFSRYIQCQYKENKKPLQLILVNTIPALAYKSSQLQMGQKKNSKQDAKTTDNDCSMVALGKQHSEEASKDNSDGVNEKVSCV
assay overview: IPOne HTRF assay, agonist and antagonist mode
Type: cell-based
test parameters: Antagonist Activity (IC50), 5-HT2A, CHO-K1 cells, vs reference agonist at EC80
Protocol: Antagonist and agonist activities were determined using an IPOne […] HTRF assay. The assay was prepared as follows: CHO-K1 cells expressing human recombinant Adrenergic α1A, Serotonin 5-HT2A, and 5-HT2B receptors grown to mid-log phase in culture media without antibiotics were detached with PBS-EDTA, centrifuged and resuspended in medium without antibiotics buffer. 20,000 cells were distributed in a 96 well plate and incubated overnight at 37° C. with 5% CO2. […]
property name: IC50

Qu. Entry CCN(CC(F)(F)F)C(=O)N[C@H]1C[C@@H]2c3cccc4[nH]c(C(F)(F)F)c(c34)C[C@H]2N(C)C1 [Compound A16H] needs its IC50 filled in; supply it.
Ans. 16 nM

###

assayed system: Dopamine D3 receptor (Homo sapiens, UniProt P35462)
Sequence (P35462 whole entry): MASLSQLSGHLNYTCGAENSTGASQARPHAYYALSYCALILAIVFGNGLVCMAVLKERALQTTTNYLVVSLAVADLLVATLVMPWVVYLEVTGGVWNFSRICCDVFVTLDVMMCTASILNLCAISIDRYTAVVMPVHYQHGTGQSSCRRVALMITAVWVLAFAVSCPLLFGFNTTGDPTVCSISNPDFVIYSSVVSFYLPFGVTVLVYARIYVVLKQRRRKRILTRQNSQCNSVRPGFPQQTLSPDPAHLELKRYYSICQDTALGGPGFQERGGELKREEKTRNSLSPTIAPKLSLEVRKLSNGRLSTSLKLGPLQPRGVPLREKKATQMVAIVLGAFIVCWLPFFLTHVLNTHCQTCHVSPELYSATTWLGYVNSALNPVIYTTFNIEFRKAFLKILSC
assay overview: GTPγS Scintillation Proximity Assay, agonist and antagonist mode
Format: biochemical
test parameters: Antagonist Activity (IC50), D3, membrane extracts, vs reference agonist at EC80
Give pIC50 for every item shown.
Answers are plain numbers, as −log10 of the molar value.

compound	pIC50
CCN(CC(F)(F)F)C(=O)N[C@H]1C[C@@H]2c3cccc4[nH]c(C5CC5)c(c34)C[C@H]2N(C)C1 [Compound A17H]	7.96

Items follow; give pIC50 for each.
1. CC[C@@H](CO)NC(=O)[C@@H]1C[C@@H]2c3cccc4c3c(c(C3CC3)n4C)C[C@H]2N(C)C1 [Compound D13H]
2. CCN(CC)C(=O)N[C@H]1C[C@@H]2c3cccc4[nH]c(C(F)(F)F)c(c34)C[C@H]2N(C)C1
3. CCN(CC)C(=O)N[C@H]1C[C@@H]2c3cccc4[nH]c(Br)c(c34)C[C@H]2N(C)C1

Ans.
1. 6.40
2. 7.89
3. 8.03

Where do these numbers come from? They come from patent US10815235B2.
